- Tested On: Human autotaxin enzyme (Homo sapiens, UniProt Q13822)
- Construct: purchased R&D System
- Protocol Description: Evaluation of autotaxin inhibitor, 18:0 Lyso PC / choline assay (Test Example 2)
- Assay type: biochemical
- Test Context: human autotaxin enzyme, 18:0 Lyso PC substrate, choline assay, room temperature 2 hours; read-out: Inhibitor activity (IC50)
Give measured IC50 for each item. Keep answers brief.

Ask | Quick check: IC50 of N#CCCN1CCN(C(=O)Cn2c(CCCC(F)(F)F)nc(-c3ccc(Cl)cc3)cc2=O)CC1 ?
Reply | 100 to 1000 nM

Ask | Quick check: IC50 of CCCCCc1nc(-c2ccc(Cl)cc2)cc(=O)n1CC(=O)NCCc1ccccc1 ?
Reply | 10 to 100 nM

Ask | Quick check: IC50 of CC(C)(C)C(=O)Nc1cc(Cl)ccc1-c1cc(=O)n(CC(=O)NCC2CCC(=O)NC2)cn1 (centres unmarked) ?
Reply | 100 to 1000 nM

Ask | Quick check: IC50 of Cc1nc(-c2ccc(Cl)cc2NC(=O)C2CC2)cc(=O)n1CC(=O)NCC1CNC(=O)C1 (centres unmarked) ?
Reply | 10 to 100 nM

Ask | Quick check: IC50 of CCCCCc1nc(-c2ccc(Cl)cc2)cc(=O)n1CC(=O)NC(CC)C(=O)O (centres unmarked) ?
Reply | < 10 nM

Ask | Quick check: IC50 of CC(C)(C)OC(=O)Cn1c(CCCC(F)(F)F)nc(-c2ccc(Cl)cc2F)cc1=O ?
Reply | 10 to 100 nM

Ask | Quick check: IC50 of N#CCNc1nc(-c2ccc(C#N)cc2)cc(=O)n1Cc1ccccc1 ?
Reply | ≥ 1000 nM

Ask | Quick check: IC50 of CCS(=O)(=O)N1CCN(C(=O)Cn2c(CCCC(F)(F)F)nc(-c3ccc(C(F)(F)F)cc3)cc2=O)CC1 ?
Reply | 100 to 1000 nM

====

- Tested On: Human autotaxin enzyme (Homo sapiens)
- Construct: purchased R&D System
- Protocol Description: Evaluation of autotaxin inhibitor, 18:0 Lyso PC / choline assay (Test Example 2)
- Type: biochemical
- Test Context: human autotaxin enzyme, 18:0 Lyso PC substrate, choline assay, room temperature 2 hours; read-out: Inhibitor activity (IC50)
Give measured IC50 for each item. Keep answers brief.

Ask | Quick check: IC50 of O=C(Cn1c(=O)cc(-c2ccc(Cl)cc2)[nH]c1=O)NC(Cc1ccccc1)C(=O)O (stereo not shown) ?
Reply | ≥ 1000 nM

Ask | Quick check: IC50 of Cc1nc(-c2ccc(Cl)cc2NC(=O)C2CC2)cc(=O)n1CC(=O)NC(C)(C)CO ?
Reply | 10 to 100 nM

Ask | Quick check: IC50 of CCCCCc1nc(-c2ccc(Cl)cc2)cc(=O)n1CC(=O)N[C@@H]1CN2CCC1CC2 ?
Reply | ≥ 1000 nM

Ask | Quick check: IC50 of COC(=O)Nc1cc(C#N)ccc1-c1cc(=O)n(CC(=O)NC(C)(C)C)c(C)n1 ?
Reply | 10 to 100 nM

====

Give measured IC50 for each item. Keep answers brief.
- Tested On: Human autotaxin enzyme (Homo sapiens)
- Construct: purchased R&D System
- Protocol Description: Evaluation of autotaxin inhibitor, 18:0 Lyso PC / choline assay (Test Example 2)
- Type: biochemical
- Test Context: human autotaxin enzyme, 18:0 Lyso PC substrate, choline assay, room temperature 2 hours; read-out: Inhibitor activity (IC50)
- Protocol: Solution B containing 100 mM Tris-HCl buffer (pH7.5), 150 mM NaCl, 5 mM MgCl2, and 0.05% Triton X-100 was prepared. Human autotaxin enzyme (purchased from R&D System) was diluted with Solution B, and 2.5 μl of which was added to a solution of test compound in DMSO. […] The fluorescent dye Resorufin, which was produced by the reaction, was detected. The fluorescence was detected using ViewLux (PerkinElmer, Inc.) with a excitation wavelength of 531 nm and a fluorescence wavelength of 598 nm. […]

Ask | Quick check: IC50 of O=C(NCC1(CO)CC1)c1cccc(Cn2c(CCCC(F)(F)F)nc(-c3ccc(Cl)cc3)cc2=O)c1 ?
Reply | 100 to 1000 nM

Ask | Quick check: IC50 of CCCCCc1nc(-c2ccc(Cl)cc2)cc(=O)n1CC(=O)NC(C)CC#N (stereo not shown) ?
Reply | 10 to 100 nM

Ask | Quick check: IC50 of O=C1CCN(C(=O)c2cccc(Cn3c(CCCC(F)(F)F)nc(-c4ccc(Cl)cc4)cc3=O)c2)CCN1 ?
Reply | 10 to 100 nM

Ask | Quick check: IC50 of COC(=O)Nc1cc(Cl)ccc1-c1cc(=O)n(CC(=O)NCC(C)(C)O)c(C)n1 ?
Reply | 10 to 100 nM

====

Give measured pIC50 for each item. Keep answers brief.
- Tested On: Human autotaxin enzyme (Homo sapiens, UniProt Q13822)
- Construct: purchased R&D System
- Protocol Description: Evaluation of autotaxin inhibitor, 18:0 Lyso PC / choline assay (Test Example 2)
- Type: biochemical
- Test Context: human autotaxin enzyme, 18:0 Lyso PC substrate, choline assay, room temperature 2 hours; read-out: Inhibitor activity (IC50)
pIC50: −log10 of the molar value.

Ask | Quick check: pIC50 of O=C(Cn1c(CCCC(F)(F)F)nc(-c2ccc(C(F)(F)F)cc2)cc1=O)NC1(c2cccnc2)CC1 ?
Reply | 7.00 to 8.00

Ask | Quick check: pIC50 of CC(C)(C)OC(=O)Cn1c(CCCC(F)(F)F)nc(-c2ccc(Cl)cc2)cc1=O ?
Reply | > 8.00

Ask | Quick check: pIC50 of CCCCCNc1nc(-c2ccc(C(F)(F)F)cc2)cc(=O)n1Cc1cccc(C(=O)NCC(N)=O)c1 ?
Reply | 6.00 to 7.00

Ask | Quick check: pIC50 of CN(CC(N)=O)C(=O)c1cccc(Cn2c(CCCC(F)(F)F)nc(-c3ccc(Cl)cc3)cc2=O)c1 ?
Reply | 6.00 to 7.00

Ask | Quick check: pIC50 of CNS(=O)(=O)CCNC(=O)Cn1c(C)nc(-c2ccc(Cl)cc2NC(=O)C2CC2)cc1=O ?
Reply | 7.00 to 8.00

Ask | Quick check: pIC50 of O=C(Cn1c(CCCC(F)(F)F)nc(-c2ccc(Cl)cc2)cc1=O)NCCN(CCO)CCO ?
Reply | 6.00 to 7.00

Ask | Quick check: pIC50 of Cc1nc(-c2ccc(Cl)cc2NC(=O)C2CC2)cc(=O)n1CC(=O)NCC1CCC(=O)N1 (stereo not shown) ?
Reply | 7.00 to 8.00

====

- Tested On: Human autotaxin enzyme (Homo sapiens)
- Construct: purchased R&D System
- Protocol Description: Evaluation of autotaxin inhibitor, 18:0 Lyso PC / choline assay (Test Example 2)
- Format: biochemical
- Test Context: human autotaxin enzyme, 18:0 Lyso PC substrate, choline assay, room temperature 2 hours; read-out: Inhibitor activity (IC50)
Give measured IC50 for each item. Keep answers brief.

Ask | Provide the documented IC50 with Human autotaxin enzyme (Homo sapiens) as the system for CCCCCc1nc(-c2ccc(Cl)cc2)cc(=O)n1CC(=O)N1CCCC(c2ccc(C(=O)O)cc2)C1 (stereo not shown)
Reply | 100 to 1000 nM

Ask | Provide the documented IC50 with Human autotaxin enzyme (Homo sapiens) as the system for CCNC(=O)N1CCC(NC(=O)Cn2c(CCCC(F)(F)F)nc(-c3ccc(C(F)(F)F)cc3)cc2=O)CC1
Reply | 10 to 100 nM

Ask | Provide the documented IC50 with Human autotaxin enzyme (Homo sapiens) as the system for COC(=O)Nc1cc(C#N)ccc1-c1cc(=O)n(CC(=O)NCC(C)(C)O)c(C)n1
Reply | 10 to 100 nM

Ask | Provide the documented IC50 with Human autotaxin enzyme (Homo sapiens) as the system for O=C(Cn1c(CCCC(F)(F)F)nc(-c2ccc(Cl)cc2)cc1=O)NCc1ccnc(O)c1
Reply | 100 to 1000 nM

====

Give measured pIC50 for each item. Keep answers brief.
- Tested On: Human autotaxin enzyme (Homo sapiens)
- Construct: purchased R&D System
- Protocol Description: Evaluation of autotaxin inhibitor, 18:0 Lyso PC / choline assay (Test Example 2)
- Assay type: biochemical
- Test Context: human autotaxin enzyme, 18:0 Lyso PC substrate, choline assay, room temperature 2 hours; read-out: Inhibitor activity (IC50)
pIC50: −log10 of the molar value.

Ask | Quick check: pIC50 of CC(C)(C)N1CCN(c2cc(=O)n(CC(=O)NC3(C#N)CC3)c(CCCC(F)(F)F)n2)CC1 ?
Reply | ≤ 6.00

Ask | Quick check: pIC50 of CC(O)CNC(=O)Cn1c(CCCC(F)(F)F)nc(-c2ccc(C(F)(F)F)cc2)cc1=O (stereo not drawn) ?
Reply | 7.00 to 8.00

Ask | Quick check: pIC50 of O=C(NCCN1CCNC1=O)c1cccc(Cn2c(CCCC(F)(F)F)nc(-c3ccc(Cl)cc3)cc2=O)c1 ?
Reply | 6.00 to 7.00

Ask | Quick check: pIC50 of O=C(Cn1c(CCCC(F)(F)F)nc(-c2ccc(Cl)cc2CO)cc1=O)NCC1(CO)COC1 ?
Reply | 7.00 to 8.00

Ask | Quick check: pIC50 of Cc1nc(-c2ccc(Cl)cc2NC(=O)C2CC2)cc(=O)n1CC(=O)N1CC(F)C1 ?
Reply | 6.00 to 7.00

Ask | Quick check: pIC50 of Cc1nc(-c2ccc(F)cc2NC(=O)C(C)(C)C)cc(=O)n1Cc1cccc(C(=O)O)c1 ?
Reply | 7.00 to 8.00

Ask | Quick check: pIC50 of COC(=O)Nc1cc(Cl)ccc1-c1cc(=O)n(CC(=O)N2CCN(C(N)=O)CC2)c(C)n1 ?
Reply | 7.00 to 8.00

Ask | Quick check: pIC50 of N#CC1CN(C(=O)Cn2c(CCCC(F)(F)F)nc(-c3ccc(C(F)(F)F)cc3)cc2=O)C1 ?
Reply | 7.00 to 8.00

Ask | Quick check: pIC50 of CCCNc1nc(-c2ccc(Cl)cc2NC(C)=O)cc(=O)n1Cc1ccccc1 ?
Reply | 6.00 to 7.00

Ask | Quick check: pIC50 of CCCCCc1nc(-c2ccc(Cl)cc2)cc(=O)n1CC(=O)NC1COC1 ?
Reply | 7.00 to 8.00

Ask | Quick check: pIC50 of CC(=O)NC1CCN(C(=O)Cn2c(CCCC(F)(F)F)nc(-c3ccc(C(F)(F)F)cc3)cc2=O)CC1 ?
Reply | 6.00 to 7.00

Ask | Quick check: pIC50 of CC(=O)Nc1cc(Cl)ccc1-c1cc(=O)n(CC(=O)N2CCN(CCC(=O)c3ccc4[nH]c(=O)oc4c3)CC2)cn1 ?
Reply | 6.00 to 7.00

Ask | Quick check: pIC50 of O=C(O)Cn1c(CCCC(F)(F)F)nc(-c2ccc(Cl)cc2)cc1=O ?
Reply | ≤ 6.00

Ask | Quick check: pIC50 of CNS(=O)(=O)CCNC(=O)Cn1c(C)nc(-c2ccc(Cl)cc2NC(=O)OC)cc1=O ?
Reply | > 8.00

Ask | Quick check: pIC50 of CC(C)(C)C(=O)Nc1cc(Cl)ccc1-c1cc(=O)n(Cc2cccc(C(=O)N3CCC4(COC4)C3)c2)cn1 ?
Reply | 7.00 to 8.00

The measured values listed here are drawn from patent US10183949B2.
